target: isolated kinase domain of the human FLT3 receptor (a.a. 571-993) (Homo sapiens); construct: human FLT3 receptor (a.a. 571-993); experiment: FLT3 fluorescence polarization kinase assay; conditions: 150 uM ATP; uncertainty ±10%
observation-type: IC50 (nM)

* COc1cc2ncnc(C3CCN(C(=O)Nc4ccc(N5CCCC5=O)cc4)CC3)c2cc1OC | 700
* COCC(=O)N1CCN(c2ccc3c(C4CCN(C(=O)Nc5ccc(N6CCCC6)cc5)CC4)ncnc3c2)CC1 | 21
* CN1CCN(CCOc2ccc3c(C4CCN(C(=O)Nc5ccc(N6CCCC6)cc5)CC4)ncnc3c2)CC1 | 0.5
* O=C(Nc1ccc(N2CCOCC2)cc1)N1CCC(c2ncnc3cc(OCCN4CCC[C@H]4CO)ccc23)CC1 | 22
* COc1cc2ncnc(C3CCN(C(=O)Nc4ccc(C(C)C)cc4)CC3)c2cc1OC | 9

====

biological target: wild-type FLT3 receptor (Homo sapiens); assay: Cell-based FLT3 receptor ELISA (FLT ligand-induced phosphorylation in Baf3 FLT3 cells); conditions: 100 ng/mL Flt ligand, uncertainty ±20%
Doc: threshold 40 nM (exclusive). Items with IC50 beneath it return true; others return false.

- COc1cc2ncnc(C3CCN(C(=O)Nc4ccc(I)cc4)CC3)c2cc1OC: false
- CN(C)[C@@H]1CCN(c2ccc3c(C4CCN(C(=O)Nc5ccc(N6CCCC6)cc5)CC4)ncnc3c2)C1: true
- CC(=O)N1CCC(COc2ccc3c(C4CCN(C(=O)Nc5ccc(N6CCCC6)cc5)CC4)ncnc3c2)CC1: false
- O=C(Nc1ccc(N2CCCC2)cc1)N1CCC(c2ncnc3cc(O[C@H]4CCOC4)ccc23)CC1: false
- CS(=O)(=O)N1CCN(c2ccc3c(C4CCN(C(=O)Nc5ccc(N6CCCC6)cc5)CC4)ncnc3c2)CC1: true
- COc1ccc2c(C3CCN(C(=O)Nc4ccc(OC(C)C)cc4)CC3)ncnc2c1: false
- O=C(Nc1ccc(N2CCCC2)cc1)N1CCC(c2ncnc3cc(OC4CCOCC4)ccc23)CC1: false
- CCN1CCN(c2ccc3c(C4CCN(C(=O)Nc5ccc(N6CCCC6)cc5)CC4)ncnc3c2)CC1: true
- O=C(CO)N1CCN(c2ccc3c(C4CCN(C(=O)Nc5ccc(N6CCCC6)cc5)CC4)ncnc3c2)CC1: false
- CN(C)CC(=O)N1CCN(c2ccc3c(C4CCN(C(=O)Nc5ccc(N6CCOCC6)cc5)CC4)ncnc3c2)CC1: false
- O=C(Nc1ccc(N2CCOCC2)cc1)N1CCC(c2ncnc3cc(OCCCN4CCCCC4)ccc23)CC1: false
- COc1cc2ncnc(C3CCN(C(=O)Nc4ccc(NC(C)=O)cc4)CC3)c2cc1OC: false
- O=C(Nc1ccc(N2CCCC2)cc1)N1CCC(c2ncnc3cc(N4CCN(c5ccccn5)CC4)ccc23)CC1: true
- O=C(Nc1ccc(N2CCOCC2)nc1)N1CCC(c2ncnc3cc(OCCN4CCOC4=O)ccc23)CC1: true
- CN1CCC(COc2ccc3c(C4CCN(C(=O)Nc5ccc(N6CCOCC6)cc5)CC4)ncnc3c2)CC1: true
- O=C(Nc1ccc(N2CCCC2)cc1)N1CCC(c2ncnc3cc(NCCO)ccc23)CC1: true
- COc1cc2ncnc(C3CCN(C(=O)Nc4ccc(N5CCCC5=O)cc4)CC3)c2cc1OC: false
- O=C(Nc1ccc(N2CCCC2)cc1)N1CCC(c2ncnc3cc(N4CCSCC4)ccc23)CC1: true
- O=C1CCCN1CCOc1cc2ncnc(C3CCN(C(=O)Nc4ccc(N5CCCC5)cc4)CC3)c2cc1F: true
- CN1CCC[C@H]1COc1ccc2c(C3CCN(C(=O)Nc4ccc(N5CCCC5)cc4)CC3)ncnc2c1: false
- O=C(Nc1ccc(N2CCCC2)cc1)N1CCC(c2ncnc3cc(N4CCOC4=O)ccc23)CC1: true
- COc1ccc2c(C3CCN(C(=O)Nc4ccc(C(C)C)cc4)CC3)ncnc2c1: true
- CCN(CC)CC#Cc1ccc2ncnc(C3CCN(C(=O)Nc4ccc(OC(C)C)cc4)CC3)c2c1: true
- CN1CCN(CCCOc2ccc3c(C4CCN(C(=O)Nc5ccc(N6CCOCC6)c(F)c5)CC4)ncnc3c2)CC1: true

====

target: wild-type FLT3 receptor (Homo sapiens, UniProt P36888); assay: Cell-based FLT3 receptor ELISA (FLT ligand-induced phosphorylation in Baf3 FLT3 cells); settings: 100 ng/mL Flt ligand, uncertainty ±20%
Sequence (P36888 27-993): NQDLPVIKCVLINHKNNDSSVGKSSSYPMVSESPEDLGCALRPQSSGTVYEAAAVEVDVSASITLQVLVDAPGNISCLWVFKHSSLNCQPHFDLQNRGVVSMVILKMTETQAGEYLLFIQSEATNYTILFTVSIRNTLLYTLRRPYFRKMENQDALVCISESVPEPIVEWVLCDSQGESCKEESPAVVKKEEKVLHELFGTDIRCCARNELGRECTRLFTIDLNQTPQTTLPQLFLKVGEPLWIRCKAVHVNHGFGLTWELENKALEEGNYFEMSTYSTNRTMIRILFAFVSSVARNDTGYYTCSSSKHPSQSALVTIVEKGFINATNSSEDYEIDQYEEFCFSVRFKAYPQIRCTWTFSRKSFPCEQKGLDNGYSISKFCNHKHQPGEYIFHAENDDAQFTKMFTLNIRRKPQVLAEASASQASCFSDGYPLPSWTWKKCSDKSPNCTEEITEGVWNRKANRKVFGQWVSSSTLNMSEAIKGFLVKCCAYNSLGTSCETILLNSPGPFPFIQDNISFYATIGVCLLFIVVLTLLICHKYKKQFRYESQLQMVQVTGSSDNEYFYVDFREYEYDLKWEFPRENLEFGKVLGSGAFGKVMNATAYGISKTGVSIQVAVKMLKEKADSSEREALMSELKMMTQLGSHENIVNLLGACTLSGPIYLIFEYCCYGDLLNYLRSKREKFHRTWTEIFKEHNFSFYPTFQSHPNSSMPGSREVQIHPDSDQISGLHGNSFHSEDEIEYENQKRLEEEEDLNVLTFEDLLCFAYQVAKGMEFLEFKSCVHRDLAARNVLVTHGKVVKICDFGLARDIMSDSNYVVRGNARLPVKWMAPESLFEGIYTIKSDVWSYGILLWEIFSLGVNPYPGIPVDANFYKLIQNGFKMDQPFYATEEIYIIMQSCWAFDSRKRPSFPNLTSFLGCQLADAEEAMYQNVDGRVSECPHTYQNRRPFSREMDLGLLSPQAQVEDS
pIC50: −log10 of the molar value.
Output y for pIC50 not less than 7; output n otherwise.

- O=C(Nc1ccc(N2CCCC2)cc1)N1CCC(c2ncnc3cc(N4CCOCC4)c(F)cc23)CC1 [Compound 210]: y
- CN1CCC(Oc2ccc3c(C4CCN(C(=O)Nc5ccc(N6CCOCC6)cc5)CC4)ncnc3c2)CC1 [Example 127]: y
- COc1cc2ncnc(C3CCN(C(=O)Nc4ccc5[nH]ccc5c4)CC3)c2cc1OC [Example 23]: n
- COc1cc2ncnc(C3CCN(C(=O)Nc4ccc(Oc5ccccc5)cc4)CC3)c2cc1OC [Example 47]: y

====

molecular target: isolated kinase domain of the human FLT3 receptor (a.a. 571-993) (Homo sapiens); construct: human FLT3 receptor (a.a. 571-993); test: FLT3 fluorescence polarization kinase assay; details: 150 uM ATP; uncertainty ±10%
pIC50: −log10 of the molar value. Where a name gives a salt, the structure may show the parent alone.
pIC50 values, listed per item
observation-type: pIC50

- CN1CCN(CCCOc2ccc3c(C4CCN(C(=O)Nc5ccc(N6CCCC6)cc5)CC4)ncnc3c2)CC1 [Example 158]: 8.10
- CN(C)C(=O)N1CCN(CCCOc2ccc3c(C4CCN(C(=O)Nc5ccc(N6CCCC6)cc5)CC4)ncnc3c2)CC1 [Example 165]: 7.82
- COc1cc2ncnc(C3CCN(C(=O)Cc4ccc(C(C)C)cc4)CC3)c2cc1OC [Example 28]: 8.10
- CC(C)Oc1ccc(NC(=O)N2CCC(c3ncnc4cc(OCCCN5CCOCC5)ccc34)CC2)cc1 [Example 38]: 8.22
- O=C(COc1ccc2c(C3CCN(C(=O)Nc4ccc(N5CCCC5)cc4)CC3)ncnc2c1)N1CCOCC1 [Example 172]: 6.27
- COc1cc2ncnc(C3CCN(C(=O)Nc4ccc(OC(C)C)cc4)CC3)c2cc1OC [Example 1, hydrochloride]: 7.34
- O=C(Nc1ccc(N2CCCC2)cc1)N1CCC(c2ncnc3cc(N4CCN(c5ccncc5)CC4)ccc23)CC1 [Compound 194]: 7.70
- O=C1CCCN1CCOc1ccc2c(C3CCN(C(=O)Nc4ccc(N5CCOCC5)nc4)CC3)ncnc2c1 [Example 83]: 7.70
- O=C1CCCN1CCOc1cc2ncnc(C3CCN(C(=O)Nc4ccc(N5CCCC5)cc4)CC3)c2cc1F [Compound 206]: 7.55
- CNC(=O)C1CCN(c2ccc3c(C4CCN(C(=O)Nc5ccc(N6CCCC6)cc5)CC4)ncnc3c2)CC1 [Example 155]: 8.10
- CS(=O)(=O)OCCCOc1ccc2c(C3CCN(C(=O)Nc4ccc(N5CCOCC5)cc4)CC3)ncnc2c1 [Example 122]: 7.64
- COc1ccc2c(C3CCN(C(=O)Nc4ccc(C(C)C)cc4)CC3)ncnc2c1 [Example 32]: 7.96
- CC(=O)N1CCN(c2ccc3c(C4CCN(C(=O)Nc5ccc(N6CCOCC6)cc5)CC4)ncnc3c2)CC1 [Example 141]: 7.18
- COc1cc2ncnc(C3CCN(C(=O)Nc4ccc(OC(F)F)cc4)CC3)c2cc1OC [Example 51]: 6.80
- O=C(Nc1ccc(N2CCOCC2)nc1)N1CCC(c2ncnc3cc(OCCCn4cnnc4)ccc23)CC1 [Example 110]: 7.55
- COc1cc2ncnc(C3CCN(C(=O)Nc4ccc(C(F)(F)F)cc4)CC3)c2cc1OC [Example 46]: 6.00
- CS(=O)(=O)NCCCOc1ccc2c(C3CCN(C(=O)Nc4ccc(N5CCCC5)nc4)CC3)ncnc2c1 [Example 86]: 9.00
- COc1cc2ncnc(C3CCN(C(=O)Nc4ccc(OC(F)(F)F)cc4)CC3)c2cc1OC [Example 50]: 7.08
- O=C(Nc1ccc(N2CCCC2)cc1)N1CCC(c2ncnc3cc(N4CCN(c5ncccn5)CC4)ccc23)CC1 [Compound 193]: 8.40
- CN1CCN(c2ccc3c(C4CCN(C(=O)Nc5ccc(N6CCOCC6)cc5)CC4)ncnc3c2)CC1 [Example 135]: 7.57
- CN1CCN(CCCOc2ccc3c(C4CCN(C(=O)Nc5cnc(N6CCCC6)nc5)CC4)ncnc3c2)CC1 [Example 105]: 7.19

====

Target: isolated kinase domain of the human FLT3 receptor (a.a. 571-993) (Homo sapiens, UniProt P36888)
Construct: human FLT3 receptor (a.a. 571-993)
Assay: FLT3 fluorescence polarization kinase assay
Details: 150 uM ATP; uncertainty ±10%
Excerpt: The FLT3 FP assay utilizes the fluorescein-labeled phosphopeptide and the anti-phosphotyrosine antibody included in the Panvera Phospho-Tyrosine Kinase Kit (Green) supplied by Invitrogen. When FLT3 phosphorylates polyGlu4Tyr, the fluorescein-labeled phosphopeptide is displaced from the anti-phosphotyrosine antibody by the phosphorylated poly Glu4Tyr, thus decreasing the FP value. […]
pIC50: −log10 of the molar value.
observation-type: pIC50

* CS(=O)(=O)N1CCN(c2ccc3c(C4CCN(C(=O)Nc5ccc(N6CCOCC6)cc5)CC4)ncnc3c2)CC1 [Example 142] | 8.22
* CN1CCC(COc2ccc3c(C4CCN(C(=O)Nc5ccc(N6CCCC6)cc5)CC4)ncnc3c2)CC1 [Example 109] | 7.46
* CCN(CC)CCCOc1ccc2c(C3CCN(C(=O)Nc4ccc(OC(C)C)cc4)CC3)ncnc2c1 [Example 36] | 7.74
* O=C(NCCCOc1ccc2c(C3CCN(C(=O)Nc4ccc(N5CCCC5)nc4)CC3)ncnc2c1)N1CCOCC1 [Example 112] | 8.30
* CC(=O)N1CC[C@@H](Oc2ccc3c(C4CCN(C(=O)Nc5ccc(N6CCCC6)cc5)CC4)ncnc3c2)C1 [Example 154] | 7.82
* COc1cc2ncnc(C3CCN(C(=O)Nc4ccc(N(C)C)cc4)CC3)c2cc1OC [Example 26] | 6.70
* CS(=O)(=O)N1CCN(CCCOc2ccc3c(C4CCN(C(=O)Nc5ccc(N6CCOCC6)cc5)CC4)ncnc3c2)CC1 [Example 118] | 8.10
* O=C(Nc1ccc(N2CCCC2)cc1)N1CCC(c2ncnc3cc(N4CCOC4=O)ccc23)CC1 [Example 176] | 6.99
* CC(C)Oc1ccc(NC(=O)N2CCC(c3ncnc4ccc(C#CCO)cc34)CC2)cc1 [Example 12] | 7.49
* CC(C)Oc1ccc(NC(=O)N2CCC(c3ccnc4ccccc34)CC2)cc1 [Example 6] | 7.08
* CN(C)c1c(NCCCOc2ccc3c(C4CCN(C(=O)Nc5ccc(N6CCCC6)nc5)CC4)ncnc3c2)c(=O)c1=O [Example 111] | 7.72
* CCN1CCN(c2ccc3c(C4CCN(C(=O)Nc5ccc(N6CCCC6)cc5)CC4)ncnc3c2)CC1 [Compound 187] | 6.84
* CN1CCN(CCCOc2ccc3c(C4CCN(C(=O)Nc5ccc(OC6CCCC6)nc5)CC4)ncnc3c2)CC1 [Example 82] | 9.00
* O=C(Nc1ccc(N2CCCC2)cc1)N1CCC(c2ncnc3cc(N4CCN(CCO)CC4)ccc23)CC1 [Compound 185] | 7.26
* CS(=O)(=O)N1CCN(c2ccc3c(C4CCN(C(=O)Nc5ccc(N6CCCC6)cc5)CC4)ncnc3c2)CC1 [Example 167] | 7.36
* CN1CCCN(CCCOc2ccc3c(C4CCN(C(=O)Nc5ccc(N6CCOCC6)cc5)CC4)ncnc3c2)CC1 [Example 125] | 8.22
* CC(C)Oc1ccc(NC(=O)N2CCC(c3ncnc4cc(OCCCN5CCCCC5)ccc34)CC2)cc1 [Example 33] | 7.96

// provenance: patent US20070004660A1
